// values below are reported pEC50
# Target under test: Toll-like receptor 7 (Homo sapiens (Human))
# Experimental protocol: Toll-like receptor 7 in vitro receptor binding activity screen (HEK-blue hTLR7 cell, alkaline phosphatase/Quanti-Blue readout)
# Format: cell-based
# Protocol conditions: HEK-blue hTLR7 cell, 24 h; read-out: TLR7 EC50
pEC50: −log10 of the molar value.

CCCCOc1nc(N)c2[nH]cc(Cc3ccc4c(c3)CCN(CC)C4)c2n1 [Example 34]
6.00 to 7.00
CCCCOc1nc(N)c2[nH]cc(Cc3ccc4c(c3)CCN(C)C4)c2n1 [Example 33]
6.00 to 7.00
CCCCOc1nc(N)c2[nH]c(C#N)c(Cc3ccc(CN4CCOCC4)cc3)c2n1 [Example 43]
7.00 to 9.00
CCCCOc1nc(N)c2[nH]cc(Cc3ccc(CN4CCCC4)cc3)c2n1 [Example 21]
6.00 to 7.00
CCCCOc1nc(N)c2[nH]cc(Cc3cccc(CN4CCCC4)c3)c2n1 [Example 4]
6.00 to 7.00
CCCCOc1nc(N)c2[nH]cc(Cc3ccc(CN(CC)CC)cc3)c2n1 [Example 12]
6.00 to 7.00
CCCCOc1nc(N)c2[nH]cc(Cc3ccc(CN4CCOCC4)cc3)c2n1 [Example 9]
4.30 to 6.00
CCCCOc1nc(N)c2[nH]cc(Cc3ccc(CN4CCC(F)(F)C4)cc3)c2n1 [Example 5]
4.30 to 6.00
CCCCOc1nc(N)c2[nH]cc(Cc3ccc4c(c3)CN(C)CC4)c2n1 [Example 29]
6.00 to 7.00
COCCOc1nc(N)c2[nH]cc(Cc3ccc(C)nc3)c2n1 [Example 36]
4.30 to 6.00

IN: Which pEC50 reading was recorded for the compound CCCCOc1nc(N)c2[nH]cc(Cc3ccc(CN4CCC(O)C4)cc3)c2n1 (stereo not drawn) [Example 7] ?
OUT: 6.00 to 7.00

IN: What value of measured pEC50 is listed for CCCCOc1nc(N)c2[nH]cc(Cc3ccc(CN4CC(OC)C4)cc3)c2n1 [Example 15] ?
OUT: 6.00 to 7.00

IN: Item under review: CCCCOc1nc(N)c2[nH]cc(Cc3cccc(CN)c3)c2n1 [Example 3] . Reported pEC50?
OUT: 4.30 to 6.00

IN: Value lookup for pEC50; key = CCCCOc1nc(N)c2[nH]cc(Cc3ccc4c(c3)CNCC4)c2n1 [Example 28]
OUT: 6.00 to 7.00

IN: Fill in the blank: the reported pEC50 of COCCOc1nc(N)c2[nH]cc(Cc3ccc(CN4CCCC4)nc3)c2n1 [Example 38] is ____.
OUT: 6.00 to 7.00

IN: Look up pEC50: CCCCOc1nc(N)c2[nH]cc(Cc3ccc(CN4CCCC4)nc3)c2n1 [Example 22]
OUT: 6.00 to 7.00

IN: Would you kindly share the measured pEC50 for CCCCOc1nc(N)c2[nH]cc(Cc3ccc(CN4CCCCC4)cc3)c2n1 [Example 8] ?
OUT: 6.00 to 7.00

IN: Fill blank: measured pEC50 of the compound COCCOc1nc(N)c2[nH]cc(Cc3ccc(Cl)cn3)c2n1 [Example 37] is ____.
OUT: 4.30 to 6.00

###

Catalogue of Cmax values
# Experimental protocol: in vivo
# Protocol conditions: male, SD, rat, iv, 1 mg/kg
Output spec: scalar in nM, unitless text.

CCCCOc1nc(N)c2[nH]cc(Cc3ccc(CN4CCCC4)cc3)c2n1
478

Next:
IN: What Cmax value was documented for this compound, CCCCOc1nc(N)c2c(n1)N(Cc1cccc(CN3CCCC3)c1)CC(=O)N2 [GS-9620, reference compound] ?
OUT: 220

###

Reported pEC50 values for a set of molecules
# Target under test: Toll-like receptor 7 (Homo sapiens (Human), UniProt Q9NYK1)
# Sequence (Q9NYK1 27-1049): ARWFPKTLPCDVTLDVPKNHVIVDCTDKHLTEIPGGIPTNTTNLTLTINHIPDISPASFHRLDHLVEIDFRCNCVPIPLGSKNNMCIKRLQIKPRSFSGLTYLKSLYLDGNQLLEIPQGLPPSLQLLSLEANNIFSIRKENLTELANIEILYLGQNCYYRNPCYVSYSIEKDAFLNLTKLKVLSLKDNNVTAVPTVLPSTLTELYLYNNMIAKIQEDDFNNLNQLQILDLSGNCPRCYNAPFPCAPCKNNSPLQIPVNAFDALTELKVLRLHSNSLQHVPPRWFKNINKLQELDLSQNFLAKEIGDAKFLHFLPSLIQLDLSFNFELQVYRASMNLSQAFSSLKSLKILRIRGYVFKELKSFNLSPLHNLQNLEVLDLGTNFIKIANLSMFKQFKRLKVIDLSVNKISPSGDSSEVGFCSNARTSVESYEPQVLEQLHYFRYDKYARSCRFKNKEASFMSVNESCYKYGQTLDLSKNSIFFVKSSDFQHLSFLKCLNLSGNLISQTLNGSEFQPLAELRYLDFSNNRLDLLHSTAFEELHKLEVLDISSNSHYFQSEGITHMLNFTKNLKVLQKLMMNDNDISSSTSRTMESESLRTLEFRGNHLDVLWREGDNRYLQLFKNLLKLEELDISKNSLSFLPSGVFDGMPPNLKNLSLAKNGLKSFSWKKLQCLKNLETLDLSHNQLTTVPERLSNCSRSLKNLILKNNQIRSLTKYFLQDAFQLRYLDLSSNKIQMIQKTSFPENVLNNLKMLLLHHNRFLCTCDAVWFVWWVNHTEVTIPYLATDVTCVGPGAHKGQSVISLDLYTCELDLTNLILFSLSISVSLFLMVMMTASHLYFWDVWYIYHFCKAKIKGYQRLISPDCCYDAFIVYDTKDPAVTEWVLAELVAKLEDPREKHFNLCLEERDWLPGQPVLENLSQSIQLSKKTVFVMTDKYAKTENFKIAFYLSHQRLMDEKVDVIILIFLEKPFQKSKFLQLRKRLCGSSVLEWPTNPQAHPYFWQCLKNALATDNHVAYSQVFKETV
# Experimental protocol: Toll-like receptor 7 in vitro receptor binding activity screen (HEK-blue hTLR7 cell, alkaline phosphatase/Quanti-Blue readout)
# Format: cell-based
# Protocol conditions: HEK-blue hTLR7 cell, 24 h; read-out: TLR7 EC50
pEC50: −log10 of the molar value.

CCCCOc1nc(N)c2[nH]cc(Cc3ccc4c(c3)CCNC4)c2n1
6.00 to 7.00
CCCCOc1nc(N)c2[nH]c(C#N)c(Cc3ccc(CN4CCCC4)nc3)c2n1
7.00 to 9.00
CCCCOc1nc(N)c2[nH]cc(Cc3ccc(C4CCN(C)CC4)cc3)c2n1
7.00 to 9.00
CCCCOc1nc(N)c2[nH]cc(Cc3ccc(CN4CCN(C)CC4)cc3)c2n1
4.30 to 6.00
CCCCOc1nc(N)c2[nH]cc(Cc3ccc(CN4CCN(C(C)C)CC4)cc3)c2n1
6.00 to 7.00

IN: Param readout= pEC50; system= Toll-like receptor 7 (Homo sapiens (Human), UniProt Q9NYK1); entry= CCCCOc1nc(N)c2[nH]cc(Cc3ccc(CN4CC(C)OC(C)C4)cc3)c2n1 (stereo not drawn) ; returns value.
OUT: 6.00 to 7.00

IN: Please tell me: pEC50 of "CCCCOc1nc(N)c2[nH]cc(Cc3ccc(CN4CCC(OC)CC4)cc3)c2n1" , system Toll-like receptor 7 (Homo sapiens (Human), UniProt Q9NYK1)?
OUT: 6.00 to 7.00

IN: # value lookup — system Toll-like receptor 7 (Homo sapiens (Human), UniProt Q9NYK1), readout pEC50, item "CCCCOc1nc(N)c2[nH]cc(Cc3ccc(N4CCN(C)CC4=O)cc3)c2n1"
OUT: 6.00 to 7.00

IN: // map "COCCOc1nc(N)c2[nH]cc(Cc3ccc(N4CCN(C)CC4=O)cc3)c2n1" to recorded pEC50 (system: Toll-like receptor 7 (Homo sapiens (Human), UniProt Q9NYK1))
OUT: 6.00 to 7.00

IN: State its pEC50 on Toll-like receptor 7 (Homo sapiens (Human), UniProt Q9NYK1): "CCCCOc1nc(N)c2[nH]cc(Cc3ccc4c(c3)CN(C(C)C)CC4)c2n1"
OUT: 6.00 to 7.00

IN: Any idea what pEC50 came out for "CCCCOc1nc(N)c2[nH]cc(Cc3ccc(CN(C)C)cc3)c2n1" on Toll-like receptor 7 (Homo sapiens (Human), UniProt Q9NYK1)?
OUT: 6.00 to 7.00

IN: What value of pEC50 on Toll-like receptor 7 (Homo sapiens (Human), UniProt Q9NYK1) does CCCCOc1nc(N)c2[nH]cc(Cc3ccc(CN4CCC(F)C4)cc3)c2n1 (stereo not drawn) have?
OUT: 6.00 to 7.00

IN: Recall the recorded pEC50 for "CCCCOc1nc(N)c2[nH]cc(Cc3cccc(CCN4CCCC4)c3)c2n1" with Toll-like receptor 7 (Homo sapiens (Human), UniProt Q9NYK1) and state it.
OUT: 4.30 to 6.00

IN: Notebook: pull reported pEC50 for Toll-like receptor 7 (Homo sapiens (Human), UniProt Q9NYK1), entry "CCCCOc1nc(N)c2[nH]c(C(N)=O)c(Cc3ccc(CN4CCCC4)cc3)c2n1"
OUT: 6.00 to 7.00

IN: Field: pEC50 (Toll-like receptor 7 (Homo sapiens (Human), UniProt Q9NYK1)). Entry: "CCCCOc1nc(N)c2[nH]cc(Cc3ccc(CN4C[C@@H]5C[C@H]4CO5)cc3)c2n1"
OUT: 6.00 to 7.00

IN: Hello, I am looking for reported pEC50 with Toll-like receptor 7 (Homo sapiens (Human), UniProt Q9NYK1) for "CCCCOc1nc(N)c2[nH]cc(Cc3ccc(CN(CCC)CCC)cc3)c2n1" . Could you help?
OUT: 6.00 to 7.00

IN: Checklist item: pEC50 tested on Toll-like receptor 7 (Homo sapiens (Human), UniProt Q9NYK1), entry CCCCOc1nc(N)c2[nH]cc(Cc3ccc(C(C)N4CCCC4)cc3)c2n1 (stereo not drawn) , value?
OUT: 6.00 to 7.00

IN: Tell me reported pEC50 for "CCCCOc1nc(N)c2[nH]cc(Cc3cccc(CN4CCN(C)CC4)c3)c2n1" , tested with Toll-like receptor 7 (Homo sapiens (Human), UniProt Q9NYK1).
OUT: 4.30 to 6.00

###

Below: a set of entries, each annotated with reported pEC50.
# Target under test: Toll-like receptor 8 (Homo sapiens (Human), UniProt Q9NR97)
# Sequence (Q9NR97 27-1041): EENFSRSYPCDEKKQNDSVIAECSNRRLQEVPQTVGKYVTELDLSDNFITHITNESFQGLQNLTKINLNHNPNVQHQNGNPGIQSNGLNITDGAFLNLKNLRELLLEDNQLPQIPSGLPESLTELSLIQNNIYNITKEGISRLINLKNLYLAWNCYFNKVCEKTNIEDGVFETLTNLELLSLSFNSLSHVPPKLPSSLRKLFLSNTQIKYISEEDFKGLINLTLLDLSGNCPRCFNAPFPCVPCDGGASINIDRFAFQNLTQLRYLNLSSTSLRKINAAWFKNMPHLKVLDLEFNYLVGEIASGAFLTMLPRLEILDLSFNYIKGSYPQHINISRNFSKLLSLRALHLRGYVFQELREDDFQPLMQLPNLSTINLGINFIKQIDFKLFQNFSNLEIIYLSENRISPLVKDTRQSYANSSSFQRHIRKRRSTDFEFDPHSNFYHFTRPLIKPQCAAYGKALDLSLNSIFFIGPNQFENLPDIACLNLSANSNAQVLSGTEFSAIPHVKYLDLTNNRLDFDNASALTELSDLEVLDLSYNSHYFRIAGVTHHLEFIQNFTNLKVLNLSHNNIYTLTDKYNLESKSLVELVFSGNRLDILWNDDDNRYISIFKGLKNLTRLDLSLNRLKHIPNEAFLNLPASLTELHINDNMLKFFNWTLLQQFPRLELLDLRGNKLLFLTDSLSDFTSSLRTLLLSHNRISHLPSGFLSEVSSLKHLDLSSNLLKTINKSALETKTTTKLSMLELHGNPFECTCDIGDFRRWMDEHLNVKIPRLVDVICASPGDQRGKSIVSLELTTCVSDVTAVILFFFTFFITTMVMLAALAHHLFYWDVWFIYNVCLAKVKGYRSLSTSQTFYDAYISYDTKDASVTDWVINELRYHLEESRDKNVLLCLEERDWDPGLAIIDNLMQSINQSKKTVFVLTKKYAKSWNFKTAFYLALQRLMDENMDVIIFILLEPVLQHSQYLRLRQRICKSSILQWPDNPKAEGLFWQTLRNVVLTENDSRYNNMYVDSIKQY
# Experimental protocol: Toll-like receptor 8 in vitro receptor binding activity screen (HEK-blue hTLR8 cell, alkaline phosphatase/Quanti-Blue readout)
# Protocol conditions: HEK-blue hTLR8 cell, head-to-head test; read-out: TLR8 EC50
Please note pEC50 is a logarithmic value: minus log10 of concentration in mol/L. Answer with that number alone.

CCCCOc1nc(N)c2c(n1)N(Cc1cccc(CN3CCCC3)c1)CC(=O)N2 [GS-9620, reference compound]
5.10

Now consider a different compound.
IN: Bench note: what pEC50 did "CCCCOc1nc(N)c2[nH]cc(Cc3ccc(CN4CCCC4)cc3)c2n1" show?
OUT: 4.93

These measurements were taken from patent US9962388B2.
